Listed below: binding affinity % of 1D2 values for each entry.
biological target: T1, recombinant human GM-CSF (human, UniProt P04141 18-144); test: ELISA on coated rhGM-CSF, UBA relative to 1D2
T1 construct: also called rhGM-CSF; CSF2
T1 sequence (P04141 18-144 limits assumed): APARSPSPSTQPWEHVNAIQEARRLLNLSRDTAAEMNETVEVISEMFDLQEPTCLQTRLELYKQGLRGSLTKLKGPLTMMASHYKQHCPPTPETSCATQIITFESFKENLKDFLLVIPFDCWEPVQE
Dear colleague, please return just the value in %, with no unit written.

Guide cases for binding affinity % of 1D2, answers given:
Binder: 1D2 SDR mutant HD31G (antibody, IgG1, V domains shown, also called X1 G) VH: QVQLVQSGAEVKKPGASVKVSCEASGYTFTGKYLHWVRQAPGQGLEWMAWINPKSGGTFYAQNFKGRVTVTRDTSINTAYLELTSLRLDDTSTYYCARGRDYYDQGAADLWGQGTMVTVSS VL: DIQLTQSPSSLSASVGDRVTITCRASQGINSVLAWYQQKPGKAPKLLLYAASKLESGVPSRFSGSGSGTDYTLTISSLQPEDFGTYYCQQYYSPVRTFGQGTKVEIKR
Result Type: binding affinity % of 1D2
Result: 58
--
Binder: 1D2 SDR mutant HQ105T (antibody, IgG1, V domains shown, also called X7 T) VH: QVQLVQSGAEVKKPGASVKVSCEASGYTFTDKYLHWVRQAPGQGLEWMAWINPKSGGTFYAQNFKGRVTVTRDTSINTAYLELTSLRLDDTSTYYCARGRDYYDTGAADLWGQGTMVTVSS VL: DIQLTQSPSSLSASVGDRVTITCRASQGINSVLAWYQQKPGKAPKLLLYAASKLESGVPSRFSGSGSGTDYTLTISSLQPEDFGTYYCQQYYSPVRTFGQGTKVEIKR
Result Type: binding affinity % of 1D2
Result: 133
--
Binder: 1D2 SDR mutant HQ105M (antibody, IgG1, V domains shown, also called X7 M) VH: QVQLVQSGAEVKKPGASVKVSCEASGYTFTDKYLHWVRQAPGQGLEWMAWINPKSGGTFYAQNFKGRVTVTRDTSINTAYLELTSLRLDDTSTYYCARGRDYYDMGAADLWGQGTMVTVSS VL: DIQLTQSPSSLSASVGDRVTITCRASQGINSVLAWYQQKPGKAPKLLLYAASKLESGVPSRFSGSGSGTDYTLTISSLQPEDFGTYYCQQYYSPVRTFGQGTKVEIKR
Result Type: binding affinity % of 1D2
Result: 148

Which binding affinity % of 1D2 value is on record for 1D2 SDR mutant HD31W (antibody, IgG1, V domains shown, also called X1 W) VH: QVQLVQSGAEVKKPGASVKVSCEASGYTFTWKYLHWVRQAPGQGLEWMAWINPKSGGTFYAQNFKGRVTVTRDTSINTAYLELTSLRLDDTSTYYCARGRDYYDQGAADLWGQGTMVTVSS VL: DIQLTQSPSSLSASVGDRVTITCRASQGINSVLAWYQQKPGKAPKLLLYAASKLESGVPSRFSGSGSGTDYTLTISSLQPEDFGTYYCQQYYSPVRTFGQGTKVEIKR ? 72

Same thing, different binder: 1D2 SDR mutant HD31A (antibody, IgG1, V domains shown, also called X1 A) VH: QVQLVQSGAEVKKPGASVKVSCEASGYTFTAKYLHWVRQAPGQGLEWMAWINPKSGGTFYAQNFKGRVTVTRDTSINTAYLELTSLRLDDTSTYYCARGRDYYDQGAADLWGQGTMVTVSS VL: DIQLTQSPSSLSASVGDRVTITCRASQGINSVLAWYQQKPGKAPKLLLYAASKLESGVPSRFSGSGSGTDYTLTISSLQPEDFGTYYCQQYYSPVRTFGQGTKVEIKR 66

Request: 1D2 SDR mutant HQ105S (antibody, IgG1, V domains shown, also called X7 S) VH: QVQLVQSGAEVKKPGASVKVSCEASGYTFTDKYLHWVRQAPGQGLEWMAWINPKSGGTFYAQNFKGRVTVTRDTSINTAYLELTSLRLDDTSTYYCARGRDYYDSGAADLWGQGTMVTVSS VL: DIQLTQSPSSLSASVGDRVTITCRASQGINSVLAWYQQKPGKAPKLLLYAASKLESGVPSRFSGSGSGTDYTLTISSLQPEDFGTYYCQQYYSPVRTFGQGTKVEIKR 134

And 1D2 SDR mutant HK54C (antibody, IgG1, V domains shown, also called X3 C) VH: QVQLVQSGAEVKKPGASVKVSCEASGYTFTDKYLHWVRQAPGQGLEWMAWINPCSGGTFYAQNFKGRVTVTRDTSINTAYLELTSLRLDDTSTYYCARGRDYYDQGAADLWGQGTMVTVSS VL: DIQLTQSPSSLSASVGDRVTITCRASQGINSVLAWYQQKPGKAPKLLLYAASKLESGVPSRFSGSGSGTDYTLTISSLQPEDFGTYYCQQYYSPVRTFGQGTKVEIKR ? 76

What do we get for 1D2 SDR mutant HR100A (antibody, IgG1, V domains shown, also called X4 A) VH: QVQLVQSGAEVKKPGASVKVSCEASGYTFTDKYLHWVRQAPGQGLEWMAWINPKSGGTFYAQNFKGRVTVTRDTSINTAYLELTSLRLDDTSTYYCARGADYYDQGAADLWGQGTMVTVSS VL: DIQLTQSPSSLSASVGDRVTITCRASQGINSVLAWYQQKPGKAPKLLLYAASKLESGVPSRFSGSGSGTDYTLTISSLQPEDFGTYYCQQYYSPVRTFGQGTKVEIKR ? 76

Would you mind doing 1D2 SDR mutant HD31N (antibody, IgG1, V domains shown, also called X1 N) VH: QVQLVQSGAEVKKPGASVKVSCEASGYTFTNKYLHWVRQAPGQGLEWMAWINPKSGGTFYAQNFKGRVTVTRDTSINTAYLELTSLRLDDTSTYYCARGRDYYDQGAADLWGQGTMVTVSS VL: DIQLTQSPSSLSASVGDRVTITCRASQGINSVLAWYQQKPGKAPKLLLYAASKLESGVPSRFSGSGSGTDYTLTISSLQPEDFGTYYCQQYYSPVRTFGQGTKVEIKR as well? 74

Also need 1D2 SDR mutant LV32G (antibody, IgG1, V domains shown, also called X8 G) VH: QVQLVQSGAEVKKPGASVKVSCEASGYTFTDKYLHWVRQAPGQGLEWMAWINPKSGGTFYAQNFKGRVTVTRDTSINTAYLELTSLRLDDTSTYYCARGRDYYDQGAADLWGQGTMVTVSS VL: DIQLTQSPSSLSASVGDRVTITCRASQGINSGLAWYQQKPGKAPKLLLYAASKLESGVPSRFSGSGSGTDYTLTISSLQPEDFGTYYCQQYYSPVRTFGQGTKVEIKR , thanks. 297
